B1: library; numbered along this chain (parent)
chain: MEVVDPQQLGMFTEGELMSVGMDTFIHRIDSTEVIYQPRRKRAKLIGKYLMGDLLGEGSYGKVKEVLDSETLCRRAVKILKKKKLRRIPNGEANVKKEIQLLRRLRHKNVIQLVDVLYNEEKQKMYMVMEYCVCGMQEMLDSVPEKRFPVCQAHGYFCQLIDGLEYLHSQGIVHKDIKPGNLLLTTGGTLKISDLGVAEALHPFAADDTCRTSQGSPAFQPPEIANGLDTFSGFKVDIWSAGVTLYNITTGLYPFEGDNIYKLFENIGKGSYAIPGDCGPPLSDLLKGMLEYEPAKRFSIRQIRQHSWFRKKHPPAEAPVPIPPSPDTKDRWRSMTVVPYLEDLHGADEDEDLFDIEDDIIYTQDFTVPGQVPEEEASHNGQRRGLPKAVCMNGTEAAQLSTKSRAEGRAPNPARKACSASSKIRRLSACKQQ

Variants of: B1
Assay: STK11 functional score (HeLa growth suppression), rescaled enrichment; synonymous median = 1, nonsense median = 0 (normalised score)
Conditions: with HeLa; variant type: missense
Where STK11 functional score equals or exceeds 1, the correct label is satisfied; where it does not, the label is not satisfied.

L190P ... not satisfied
I192M ... satisfied
L400Y ... satisfied
L140T ... not satisfied
K262G ... satisfied
P413G ... satisfied
G91L ... satisfied
R383F ... satisfied
L282T ... not satisfied
G394L ... satisfied

Can L282R be said to have STK11 functional score at or above 1? not satisfied

Same thing, different variant: P323T satisfied
